Listed below: max response values for each entry.
Assay: qHTS Assay for Lipid Storage Modulators (AID 1519)
Conditions: Drosophila S3 cells, BODIPY lipid droplet/cell ratio, laser cytometry; measured here: cell count channel max response; cells loaded with oleic acid
Inconclusive results are not listed.
assay metric: max response (%)

[[record]]
compound = "C=C1CC[C@@H]2O[C@@]2(C)CC[C@H]2[C@H]1CC2(C)C"
assay_metric = "max response"
readout_units = "%"
readout_number = 22.2

[[record]]
compound = "O=C1OC(CO)C(O)C(O)C1O (centres undefined)"
assay_metric = "max response"
readout_units = "%"
readout_number = 17.3

[[record]]
compound = "CC(C)=CCc1c(O)cc2oc(C)cc(=O)c2c1O"
assay_metric = "max response"
readout_units = "%"
readout_number = -3.81

[[record]]
compound = "CC(=O)N[C@H]1[C@@H](O[C@@H](C)C(=O)O)[C@H](O)[C@H](CO)O[C@@H]1O"
assay_metric = "max response"
readout_units = "%"
readout_number = 7.96

[[record]]
compound = "Cc1c(C)c2c(c(C)c1O)CC[C@@](C)(C(=O)O)O2"
assay_metric = "max response"
readout_units = "%"
readout_number = -15.9

[[record]]
compound = "CC(=O)CC(=O)[C@@]1(O)CC[C@@H]2[C@@H]3C=C(C)C4=CC(=O)CC[C@@H]4[C@H]3CC[C@]21C"
assay_metric = "max response"
readout_units = "%"
readout_number = -16.2

[[record]]
compound = "CC(=O)OC1CCC2(C)C3=C(CCC2C1(C)C)[C@]1(C)CCC(C(C)CCC=C(C)C)[C@]1(C)CC3 (some centres undefined)"
assay_metric = "max response"
readout_units = "%"
readout_number = 20.7

[[record]]
compound = "Nc1c(O)cccc1C(=O)C[C@@H](N)C(=O)O"
assay_metric = "max response"
readout_units = "%"
readout_number = -4.16

[[record]]
compound = "O=C(/C=C/c1ccc(O)c(O)c1)O[C@H]1C[C@@](O)(C(=O)O)CC(O)C1O (some centres undefined)"
assay_metric = "max response"
readout_units = "%"
readout_number = 13.7

[[record]]
compound = "CCCCC[C@H](O)/C=C\\[C@H]1[C@H](C/C=C\\CCCC(=O)O)[C@@H](O)C[C@H]1O (tested in a mixture with another compound)"
assay_metric = "max response"
readout_units = "%"
readout_number = 14.3

[[record]]
compound = "CCN(CC)Cc1ccc(Nc2ccnc3cc(Cl)ccc23)cc1O"
assay_metric = "max response"
readout_units = "%"
readout_number = 18.7

[[record]]
compound = "NC[C@@H]1O[C@H](O[C@H]2[C@H](O)[C@@H](O[C@H]3[C@H](O)[C@H](N)C[C@H](N)[C@H]3O[C@@H]3O[C@H](CO)[C@@H](O)[C@H](O)[C@@H]3N)O[C@H]2CO)[C@@H](N)[C@H](O)[C@@H]1O"
assay_metric = "max response"
readout_units = "%"
readout_number = -10.9

[[record]]
compound = "CC(=O)N[C@H](CS)C(=O)O"
assay_metric = "max response"
readout_units = "%"
readout_number = 2.82

[[record]]
compound = "COc1cc2nc(N3CCN(C(=O)[C@@H]4COc5ccccc5O4)CC3)nc(N)c2cc1OC"
assay_metric = "max response"
readout_units = "%"
readout_number = -1.2

[[record]]
compound = "CC(=O)O[C@]1(C(C)=O)CC[C@@H]2[C@@H]3C=C(C)C4=CC(=O)CC[C@@]4(C)[C@H]3CC[C@]21C"
assay_metric = "max response"
readout_units = "%"
readout_number = -20.2

[[record]]
compound = "OCC1O[C@H](OC2C(CO)O[C@@](O)(CO)C2O)C(O)C(O)C1O (some centres undefined)"
assay_metric = "max response"
readout_units = "%"
readout_number = 14.3

[[record]]
compound = "C[C@@]12C=CC(=O)C=C1CCC1C3CC(O)[C@@](O)(C(=O)CO)[C@]3(C)CC(O)[C@]12F (some centres undefined)"
assay_metric = "max response"
readout_units = "%"
readout_number = 11.4

[[record]]
compound = "CN1[C@H](CC(=O)c2ccccc2)CCC[C@H]1C[C@@H](O)c1ccccc1"
assay_metric = "max response"
readout_units = "%"
readout_number = -11.7

[[record]]
compound = "O=c1cc(-c2ccc(O)cc2)oc2cc(OC3OC(CO)C(O)C(O)[C@H]3O[C@@H]3OC[C@@](O)(CO)C3O)cc(O)c12 (some centres undefined)"
assay_metric = "max response"
readout_units = "%"
readout_number = 23.4

[[record]]
compound = "NC[C@@H]1O[C@H](O[C@@H]2[C@H](O[C@@H]3O[C@H](CO)[C@@H](COC[C@H]4O[C@@H](CN)[C@@H](O)[C@@H](O)[C@@H]4N)[C@@H]3O)[C@@H](O)[C@@H](N)C[C@H]2N)[C@@H](N)[C@H](O)[C@@H]1O"
assay_metric = "max response"
readout_units = "%"
readout_number = 1.11

[[record]]
compound = "CCC(C)(C)C(=O)OC1CC(C)C=C2C=CC(C)C(CCC3CC(O)CC(=O)O3)C21 (centres undefined)"
assay_metric = "max response"
readout_units = "%"
readout_number = 2.37

[[record]]
compound = "COCC(=O)Nc1c(I)c(C(=O)NC[C@@H](O)CO)c(I)c(C(=O)N(C)C[C@@H](O)CO)c1I"
assay_metric = "max response"
readout_units = "%"
readout_number = -5.27

[[record]]
compound = "CN1CCCC1c1cccnc1 (centres undefined)"
assay_metric = "max response"
readout_units = "%"
readout_number = 11.9

[[record]]
compound = "O=C(Oc1cc(OC(=O)c2ccccc2)c2c(c1)OC(c1ccc(OC(=O)c3ccccc3)c(OC(=O)c3ccccc3)c1)[C@@H](OC(=O)c1ccccc1)C2)c1ccccc1 (some centres undefined)"
assay_metric = "max response"
readout_units = "%"
readout_number = 23.3

[[record]]
compound = "CC(=O)OC1CC(OC(C)=O)[C@]2(C)C(CC(O)[C@]3(C)C2CC[C@@]2(C)C(c4ccoc4)OC(=O)C4O[C@]432)C1(C)C (some centres undefined)"
assay_metric = "max response"
readout_units = "%"
readout_number = -1.7

[[record]]
compound = "CCCCCC1C(=O)CCC1CC(=O)OC (centres undefined)"
assay_metric = "max response"
readout_units = "%"
readout_number = 6.16

[[record]]
compound = "CCOC(=O)O[C@@H](C)OC(=O)[C@@H]1N2C(=O)[C@@H](NC(=O)[C@@H](N)c3ccccc3)[C@H]2SC1(C)C"
assay_metric = "max response"
readout_units = "%"
readout_number = 3.59

[[record]]
compound = "NC(Cc1c[nH]c2ccccc12)C(=O)NCC(=O)O (centres undefined)"
assay_metric = "max response"
readout_units = "%"
readout_number = -12.4

[[record]]
compound = "CC(=O)[C@]1(O)CCC2C3C=C(Cl)C4=CC(=O)C5CC5[C@@]4(C)C3CC[C@]21C (some centres undefined)"
assay_metric = "max response"
readout_units = "%"
readout_number = 4.22

[[record]]
compound = "C[C@@H]1[C@H](C)CC[C@@]2(C(=O)O)CC[C@]3(C)C(=CC[C@H]4[C@@]5(C)CC[C@@H](O)C(C)(C)[C@@H]5CC[C@@]43C)[C@@H]12"
assay_metric = "max response"
readout_units = "%"
readout_number = -6.67

[[record]]
compound = "COc1cc2c(cc1O)C(Cc1ccc(O)cc1)N(C)CC2 (centres undefined)"
assay_metric = "max response"
readout_units = "%"
readout_number = 13.5

[[record]]
compound = "COc1ccc(-c2oc3cc(O[C@@H]4OC(CO)C(O)C(O)C4O)c(OC)c(O)c3c(=O)c2OC)cc1O (some centres undefined)"
assay_metric = "max response"
readout_units = "%"
readout_number = -7.2

[[record]]
compound = "COc1ccc2c(c1)OC1(O)COc3cc(OC)c(OC)cc3C1=C2 (centres undefined)"
assay_metric = "max response"
readout_units = "%"
readout_number = -18.4

[[record]]
compound = "CCC(C)C(=O)OC1C2CC3=C4CC(=O)OC(c5ccoc5)[C@]4(C)CCC3[C@@](C)(C2=O)C(CC(=O)OC)C1(C)C (some centres undefined)"
assay_metric = "max response"
readout_units = "%"
readout_number = -4.4


All figures here come from PubChem BioAssay (NCATS).
